Data origin: ChEMBL document CHEMBL4340503

Give measured selectivity ratio at 72 h for each item. Keep answers brief.
# measurementNotes: Selectivity index, ratio of TC50 against African green monkey Vero cells infected with Influenza A virus H3N2 after 72 hrs by MTT assay to IC50 against Influenza A virus H3N2 infected in African green monkey Vero cells assessed as inhibition of virus-induced cytopathogenic effect by microscopic analysis
# Type: toxicity
# conditionsUsed: read-out: Selectivity Index

Q) Check the records and state selectivity ratio at 72 h for Nc1nc2c(c(N)nc(=O)n2[C@@H]2O[C@H](CO)[C@@H](O)[C@H]2O)c(=O)[nH]1
A) 13

Q) Check the records and state selectivity ratio at 72 h for COc1ccc(Cn2c(=O)nc(N)c3c(OC)nc(N)nc32)cc1
A) 3.3

Q) Check the records and state selectivity ratio at 72 h for CC(C)(C)c1ccc(CNc2ncnc(Cl)c2/C=N/O)cc1
A) 1.78

Q) Check the records and state selectivity ratio at 72 h for COc1ccccc1CNc1ncnc(Cl)c1/C=N/O
A) 4.41

Q) Check the records and state selectivity ratio at 72 h for C[C@H]1O[C@@H](n2cnc(N)c3c(=O)[nH]c(=O)nc2-3)[C@H](O)[C@@H]1O
A) 3

====

# measurementNotes: Cytotoxicity against African green monkey Vero cells infected with Herpes simplex virus 1 after 72 hrs by MTT assay
# Format: cell-based
# conditionsUsed: chlorocebus sabaeus, read-out: TC50
Give measured CC50 at 72 h for each item. Keep answers brief.
Answer format: numeric, µg/mL implied, no suffix.

Q) Check the records and state CC50 at 72 h for Cc1ccc(CNc2ncnc(Cl)c2/C=N/O)cc1
A) 1.11

Q) Check the records and state CC50 at 72 h for COc1ccccc1CCNc1ncnc(Cl)c1/C=N/O
A) 80.1

Q) Check the records and state CC50 at 72 h for COc1ccccc1CCCNc1ncnc(Cl)c1/C=N/O
A) 1.29

Q) Check the records and state CC50 at 72 h for COc1cccc(CNc2ncnc(Cl)c2/C=N/O)c1
A) 2.31

Q) Check the records and state CC50 at 72 h for Nc1ncn([C@@H]2O[C@H](CO)C[C@H]2O)c2nc(=O)[nH]c(=O)c1-2
A) 347

Q) Check the records and state CC50 at 72 h for Nc1nc2[nH]c(=O)nc(N)c2c(=O)[nH]1
A) 16

Q) Check the records and state CC50 at 72 h for Nc1ncnc2c1c(=O)[nH]c(=O)n2[C@H]1O[C@@H](CO)[C@H](O)[C@@H]1O
A) 40.5

Q) Check the records and state CC50 at 72 h for Nc1nc2c(c(N)nc(=O)n2[C@@H]2O[C@H](CO)[C@@H](O)[C@H]2O)c(=O)[nH]1
A) 144

Q) Check the records and state CC50 at 72 h for CC(C)(C)c1ccc(CNc2ncnc(Cl)c2/C=N/O)cc1
A) 0.26

Q) Check the records and state CC50 at 72 h for Nc1ccc(CNc2ncnc(Cl)c2/C=N/O)cc1
A) 2.47

Q) Check the records and state CC50 at 72 h for COc1ccccc1CNc1ncnc(Cl)c1/C=N\O
A) 10.7

Q) Check the records and state CC50 at 72 h for COc1ccc(Cn2c(=O)nc(N)c3c(OC)nc(N)nc32)cc1
A) 55.6

====

# measurementNotes: Selectivity index, ratio of TC50 against African green monkey Vero cells infected with Hepatitis C virus after 72 hrs by MTT assay to IC50 against Hepatitis C virus infected in African green monkey Vero cells assessed as inhibition of virus-induced cytopathogenic effect by microscopic analysis
# Type: toxicity
# conditionsUsed: read-out: Selectivity Index
recordedEndpoint: selectivity ratio at 72 h
Answer field: number only, no words.

Q) Check the records and state selectivity ratio at 72 h for CC(C)(C)c1ccc(CNc2ncnc(Cl)c2/C=N/O)cc1
A) 17.8

Q) Check the records and state selectivity ratio at 72 h for COc1ccccc1CNc1ncnc(Cl)c1/C=N/O
A) 27.2
